- assay.comment: Part 1 SAD: plasma pharmacokinetics after single oral dose
- Type: in vivo, human
- particulars: human, plasma, oral; 8 mg single dose, median; read-out: Tmax
quantity.measured: Tmax (h)
Could you give me the number in h? Just the number is fine.

# return recorded Tmax for input CS(=O)(=O)N[C@H]1CCCN2C(=O)COc3ccccc3C3CCC(CC3)OCC12 (stereo partly shown) 2

----------
- assay.comment: Part 2 MAD: plasma pharmacokinetics, once daily for 10 days
- Format: in vivo, human
- particulars: human, plasma, oral; 25 mg, Day 10, geometric mean; read-out: Vz/F
quantity.measured: Vd/F (L)
# unit: L | format: bare number

Name the recorded Vd/F of the molecule listed here: CS(=O)(=O)N[C@H]1CCCN2C(=O)COc3ccccc3C3CCC(CC3)OCC12 (stereo partly shown) 2480

----------
- assay.comment: Part 1 SAD: plasma pharmacokinetics after single oral dose
- Assay type: in vivo, human
- particulars: human, plasma, oral; 1 mg single dose, geometric mean
quantity.measured: Cmax (ng/mL)
Write the answer as a number in ng/mL, unit excluded.

Entry CS(=O)(=O)N[C@H]1CCCN2C(=O)COc3ccccc3C3CCC(CC3)OCC12 (stereo partly shown) [Compound A] needs its Cmax filled in; supply it. 3.23

----------
- assay.comment: Part 2 MAD: plasma pharmacokinetics, once daily for 10 days
- Type: in vivo, human
- particulars: human, plasma, oral, 8 mg, Day 10, geometric mean
quantity.measured: Cmax

Fill in reported Cmax for this entry: CS(=O)(=O)N[C@H]1CCCN2C(=O)COc3ccccc3C3CCC(CC3)OCC12 (stereo partly shown) 22.1 ng/mL

----------
- assay.comment: Part 3 relative bioavailability (tablet vs powder-in-capsule) with food effect: plasma PK, 10 mg
- Format: in vivo, human
- particulars: human, plasma, oral, 10 mg, 10 mg Tablet (Fed, low-fat), Cohort 2, N = 10
quantity.measured: half-life
Record the result as a number with its unit.

Supply recorded half-life for CS(=O)(=O)N[C@H]1CCCN2C(=O)COc3ccccc3C3CCC(CC3)OCC12 (stereo partly shown) [Compound A] here. 9.69 h

----------
- assay.comment: Part 4 NT1: plasma pharmacokinetics, single doses
- Assay type: in vivo
- particulars: human, oral, NT1, 3 mg single dose, geometric mean, N = 4, read-out: AUC0-24
quantity.measured: AUC(0-t)
Note: state the figure and append the unit.

Check the records and state AUC(0-t) for CS(=O)(=O)N[C@H]1CCCN2C(=O)COc3ccccc3C3CCC(CC3)OCC12 (stereo partly shown) [Compound A] 59.1 ng·h/mL

----------
- assay.comment: Part 2 MAD: plasma pharmacokinetics, once daily for 10 days
- Format: in vivo, human
- particulars: human, plasma, oral, 15 mg, Day 10, geometric mean
quantity.measured: Cmax (ng/mL)
// units = ng/mL; emit number, no label

Please report Cmax for the following molecule: CS(=O)(=O)N[C@H]1CCCN2C(=O)COc3ccccc3C3CCC(CC3)OCC12 (stereo partly shown) 28.9

----------
- assay.comment: Part 2 MAD: plasma pharmacokinetics, once daily for 10 days
- Assay type: in vivo, human
- particulars: human, plasma, oral, 25 mg, Day 10, geometric mean; read-out: C8 (concentration at 8-hour postdose)
quantity.measured: concentration at 8 h (ng/mL)
Please respond with the number in ng/mL and leave the unit unwritten.

Give a short answer stating reported concentration at 8 h for CS(=O)(=O)N[C@H]1CCCN2C(=O)COc3ccccc3C3CCC(CC3)OCC12 (stereo partly shown) . 7.39
